meta.source: patent US20230373985A1

experimental_target: wt human JAK1, catalytic site (Homo sapiens, UniProt P23458)
Construct: wt human JAK1, catalytic site
Sequence (P23458 875-1153 limits assumed): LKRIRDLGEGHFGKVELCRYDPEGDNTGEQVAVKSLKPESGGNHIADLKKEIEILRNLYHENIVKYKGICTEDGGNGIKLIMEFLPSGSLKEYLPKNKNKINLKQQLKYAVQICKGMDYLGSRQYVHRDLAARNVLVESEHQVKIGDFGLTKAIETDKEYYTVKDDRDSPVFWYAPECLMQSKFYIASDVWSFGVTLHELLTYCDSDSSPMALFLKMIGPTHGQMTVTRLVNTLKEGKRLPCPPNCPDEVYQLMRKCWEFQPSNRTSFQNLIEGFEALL
assay_overview: HTRF KinEASE assay, JAK1
condition_info: 2.5 μM ATP; read-out: IC50, Activity Toward JAK1
pIC50: −log10 of the molar value.
measured_parameter: pIC50

{"columns": ["smiles_input", "experimental_target", "pIC50"],
 "data": [
  ["NC(=O)c1nn(-c2c(F)cccc2Cl)cc1Nc1ccc(-c2nnc3n2CCOC3)cc1", "wt human JAK1, catalytic site (Homo sapiens, UniProt P23458)", "6.00 to 7.00"],
  ["NC(=O)c1nn(-c2c(F)cccc2Cl)cc1Nc1ccc(-n2ncc3c2CCOC3)cc1", "wt human JAK1, catalytic site (Homo sapiens, UniProt P23458)", "7.00 to 8.00"],
  ["NC(=O)c1nn(-c2c(Cl)cccc2Cl)cc1Nc1ccc(C(=O)N2CC(O)C2)cn1", "wt human JAK1, catalytic site (Homo sapiens, UniProt P23458)", "7.00 to 8.00"]
]}

# value lookup — system wt human JAK1, catalytic site (Homo sapiens, UniProt P23458), readout pIC50, item NC(=O)c1nn(-c2c(Cl)cccc2Cl)cc1Nc1ccc(C(=O)N2CC[C@H](F)C2)nc1
6.00 to 7.00

# value lookup — system wt human JAK1, catalytic site (Homo sapiens, UniProt P23458), readout pIC50, item CCc1nc(C(F)(F)F)nn1-c1ccc(Nc2nn(-c3c(Cl)cccc3Cl)nc2C(N)=O)cc1
6.00 to 7.00

# value lookup — system wt human JAK1, catalytic site (Homo sapiens, UniProt P23458), readout pIC50, item NC(=O)c1nn(-c2c(F)cccc2Cl)cc1Nc1ccc(C(=O)N2CCOCC2)cn1
6.00 to 7.00

# value lookup — system wt human JAK1, catalytic site (Homo sapiens, UniProt P23458), readout pIC50, item CN(C)C1CCN(C(=O)c2ccc(Nc3cn(-c4c(Cl)cccc4Cl)nc3C(N)=O)cc2)CC1
7.00 to 8.00

# value lookup — system wt human JAK1, catalytic site (Homo sapiens, UniProt P23458), readout pIC50, item CCc1ccnn1-c1ccc(Nc2cn(-c3c(Cl)cccc3Cl)nc2C(N)=O)cc1
> 8.00

# value lookup — system wt human JAK1, catalytic site (Homo sapiens, UniProt P23458), readout pIC50, item CC(C)(C)NC(=O)c1ccc(Nc2cn(-c3c(Cl)cccc3Cl)nc2C(N)=O)cc1F
6.00 to 7.00

# value lookup — system wt human JAK1, catalytic site (Homo sapiens, UniProt P23458), readout pIC50, item N#Cc1cn(CCO)c(-c2ccc(Nc3cn(-c4c(Cl)cccc4Cl)nc3C(N)=O)cc2)n1
7.00 to 8.00

# value lookup — system wt human JAK1, catalytic site (Homo sapiens, UniProt P23458), readout pIC50, item NC(=O)c1nn(-c2c(Cl)cccc2Cl)cc1Nc1ccc(-c2nc(C(F)(F)F)cn2CCO)nc1
6.00 to 7.00

# value lookup — system wt human JAK1, catalytic site (Homo sapiens, UniProt P23458), readout pIC50, item Cc1ccnn1-c1ccc(Nc2cn(-c3c(F)cccc3Cl)nc2C(N)=O)cc1
7.00 to 8.00

# value lookup — system wt human JAK1, catalytic site (Homo sapiens, UniProt P23458), readout pIC50, item CN1CCCN(C(=O)c2ccc(Nc3cn(-c4c(Cl)cccc4Cl)nc3C(N)=O)cc2)CC1
7.00 to 8.00

# value lookup — system wt human JAK1, catalytic site (Homo sapiens, UniProt P23458), readout pIC50, item Cn1nc(C(F)(F)F)nc1-c1ccc(Nc2cn(-c3c(F)cccc3F)nc2C(N)=O)cc1
7.00 to 8.00

# value lookup — system wt human JAK1, catalytic site (Homo sapiens, UniProt P23458), readout pIC50, item NC(=O)c1nn(-c2c(Cl)cccc2Cl)cc1Nc1ccc(C(=O)N2CC(F)(F)C(F)(F)C2)cc1
7.00 to 8.00

# value lookup — system wt human JAK1, catalytic site (Homo sapiens, UniProt P23458), readout pIC50, item Cc1cccc2ncc(-c3ccc(Nc4cn(-c5c(Cl)cccc5Cl)nc4C(N)=O)cn3)n12
7.00 to 8.00
